Below, each entry is listed alongside its reported Human VPAC2 Receptor: Alpha Screen (EC50; nM), cAMP generation.
target desc: T1, human VPAC2 receptor (human, UniProt P41587 24-438)
T1 sequence (looked up): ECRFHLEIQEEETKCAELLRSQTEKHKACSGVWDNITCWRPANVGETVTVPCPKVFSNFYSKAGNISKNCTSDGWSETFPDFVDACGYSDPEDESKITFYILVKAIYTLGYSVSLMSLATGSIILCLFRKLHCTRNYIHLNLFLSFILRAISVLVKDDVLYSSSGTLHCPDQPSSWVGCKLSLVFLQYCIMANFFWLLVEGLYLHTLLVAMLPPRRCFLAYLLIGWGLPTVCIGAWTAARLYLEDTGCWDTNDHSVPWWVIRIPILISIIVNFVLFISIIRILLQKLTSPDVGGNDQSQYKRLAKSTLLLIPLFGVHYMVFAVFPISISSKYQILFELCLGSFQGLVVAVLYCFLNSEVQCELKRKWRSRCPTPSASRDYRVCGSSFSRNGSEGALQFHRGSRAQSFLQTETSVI
assay info: cell-based or functional assay
Numbered stars: 1 amine (or outer) side, 2 acyl side, 3 side chain; on linkers, the order of the positions; unused ones are H or OH. Square brackets hold non-standard residues; d marks the D form. Ends that are not written are not given here. * marks the point of attachment. Tyr(OMe) = O-methyl-tyrosine, COc1ccc(C[C@H](N[*:1])C(=O)[*:2])cc1; Orn = NCCC[C@H](N)C(=O)O; Hexanoyl = CCCCCC(=O)*; Aib = CC(C)(N)C(=O)O
Number in nM, nothing else.

Here are 6 binders together with their reported answers.
Hexanoyl-HSDAVFTDQ[Tyr(OMe)]TR[Aib]R[Aib]QLAA[Aib]KYLQSIK[Aib]KGGPSSGAPPPS [VPAC2 receptor peptide agonist P408] | 0.12
HSDAVFTDNYTXLRXQVASXKYLQSIXNXGGPSSGAPPPS (N-terminal hexanoyl (C6); Orn at 12, 27 and 29; Aib at 15 and 20) [VPAC2 receptor peptide agonist P387] | 0.47
Hexanoyl-HSDAVFTDNYTRLLAKLALQKYLQSI[Orn]N[Orn]GGPSSGAPPPS [VPAC2 receptor peptide agonist P370] | 0.23
Hexanoyl-HSDAVFTDNYTLLR[Aib]QVAA[Aib]KYLQSI[Orn]N[Orn]GGPSSGAPPPS [VPAC2 receptor peptide agonist P367] | 6.5
HSDAVFTDNYTXLRXSVAAXKYLQSIXNXGGPSSGAPPPS (N-terminal hexanoyl (C6); Orn at 12, 27 and 29; Aib at 15 and 20) [VPAC2 receptor peptide agonist P390] | 0.12
HSDAVFTEQYTXLRXQLAAXXYLQSIXXGGPSSGAPPPS (N-terminal hexanoyl (C6); Tyr(OMe) at 10 and 22; Orn at 12, 21, 27 and 28; Aib at 15 and 20) [VPAC2 receptor peptide agonist P418] | 3.11

IN: Reported Human VPAC2 Receptor: Alpha Screen (EC50; nM), cAMP generation for HSDAVFTEQYTXLRXQLAAXXYLQSIXXGGPSSGAPPPS (N-terminal hexanoyl (C6); Tyr(OMe) at 10; Orn at 12, 21, 27 and 28; Aib at 15 and 20; C-terminal amide (-NH2)) [VPAC2 receptor peptide agonist P487] : what is it?
OUT: 0.24

The measurements presented in this section are drawn from patent US20080194482A1.
